Reference for the values: paper PMC4336329

# ASSAY TARGET: human ether-à-go-go-related gene (hERG) potassium channel (human, UniProt Q12809);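 also: peak tail current of the secondary pulse compared with the same well before compound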
# Sequence (Q12809 whole entry, looked up): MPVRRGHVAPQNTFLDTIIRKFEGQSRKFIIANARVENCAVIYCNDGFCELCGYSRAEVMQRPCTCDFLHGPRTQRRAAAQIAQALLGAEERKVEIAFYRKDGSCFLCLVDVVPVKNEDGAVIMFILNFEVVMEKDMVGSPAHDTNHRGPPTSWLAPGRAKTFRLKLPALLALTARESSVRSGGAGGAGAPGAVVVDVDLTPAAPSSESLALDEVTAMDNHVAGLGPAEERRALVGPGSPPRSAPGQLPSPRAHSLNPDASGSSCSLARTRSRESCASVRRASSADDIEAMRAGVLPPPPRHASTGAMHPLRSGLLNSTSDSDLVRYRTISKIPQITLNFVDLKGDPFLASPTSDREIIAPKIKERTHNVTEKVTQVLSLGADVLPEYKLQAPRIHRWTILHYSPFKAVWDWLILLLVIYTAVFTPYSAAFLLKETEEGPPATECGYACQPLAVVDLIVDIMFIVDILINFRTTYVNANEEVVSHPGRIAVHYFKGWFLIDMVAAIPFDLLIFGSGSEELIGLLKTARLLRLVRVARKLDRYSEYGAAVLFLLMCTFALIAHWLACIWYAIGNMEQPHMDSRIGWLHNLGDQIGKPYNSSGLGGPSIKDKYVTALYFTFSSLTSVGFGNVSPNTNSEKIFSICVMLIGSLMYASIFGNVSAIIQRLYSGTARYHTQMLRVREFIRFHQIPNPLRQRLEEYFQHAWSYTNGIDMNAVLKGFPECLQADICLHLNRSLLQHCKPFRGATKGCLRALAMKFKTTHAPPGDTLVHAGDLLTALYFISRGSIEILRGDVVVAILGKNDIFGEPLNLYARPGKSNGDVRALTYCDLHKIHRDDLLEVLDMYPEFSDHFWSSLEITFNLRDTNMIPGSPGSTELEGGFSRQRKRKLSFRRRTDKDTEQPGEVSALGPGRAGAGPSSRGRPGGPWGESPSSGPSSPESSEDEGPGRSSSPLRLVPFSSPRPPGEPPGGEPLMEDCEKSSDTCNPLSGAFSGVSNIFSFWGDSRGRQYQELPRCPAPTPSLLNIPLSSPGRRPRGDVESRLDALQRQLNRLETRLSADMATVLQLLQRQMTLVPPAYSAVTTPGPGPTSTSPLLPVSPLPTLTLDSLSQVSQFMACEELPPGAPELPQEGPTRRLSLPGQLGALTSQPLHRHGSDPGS
# ASSAY OVERVIEW: primary screen, population patch clamp on CHO cells stably expressing hERG; higher = less effect of the substance
In all, about 310,000 compounds went through this assay and about 14,000 (4.5%) showed an effect of 50% or more. The effect is printed as a negative number. The sample holds strong results, similar compounds and a random draw of the others, so the mix is not that of the screen.
Would you mind telling me the reported hERG current change (%, negative = inhibition) at 10uM of each entry?
Give bare numbers, in %.

Worked cases, answers included:
{"columns": ["MOLECULE", "NUMBER"],
 "data": [
  ["Clc1ccc(C(c2nnnn2CCc2ccccc2)N2CCSCC2)cc1 (centres unmarked)", 0.814],
  ["O=C(CCCCCBr)N1CCC(CC2CC(c3cccc(Br)c3)=NO2)(C(=O)NCC2CCCCC2)CC1 (centres unmarked)", -69],
  ["Cc1ccc(OCCC(=O)OCC(=O)c2c(N)n(CC(C)C)c(=O)n(C)c2=O)cc1", -71.9],
  ["Cl.Fc1ccc(Cn2nnnc2C(c2ccc(Cl)cc2)N2CCSCC2)cc1 (centres unmarked)", -1.72]
]}

Quick request: hERG current change (%, negative = inhibition) at 10uM for each listed item, please.
1. CN(CC(=O)Nc1ccccc1C(F)(F)F)C(=O)COc1ncnc2ccccc12
2. O=C(Nc1ccc2c(c1)OCO2)C1CC1(Cl)Cl (centres unmarked)
3. Cc1csc(=O)n1CCC(=O)OCC(=O)c1c(N)n(CC(C)C)c(=O)n(C)c1=O
4. O=C(Cc1ccc([N+](=O)[O-])cc1)N1CCN(Cc2ccc3c(c2)OCO3)CC1
5. COCCn1nnnc1C(c1ccc(Cl)cc1)N1CCSCC1.Cl (centres unmarked)
6. CC(=O)C1=C(O)C(=O)OC1c1ccc(Cl)cc1 (centres unmarked)
7. COc1ccccc1C(=O)NC(C)c1ccccc1 (centres unmarked)
8. Cc1ccc(S(=O)(=O)CCC(=O)OCC(=O)c2c(N)n(CC(C)C)c(=O)n(C)c2=O)cc1

[1.42, 3.77, -26.2, -45.5, -51.9, 7.92, 18.6, -27.9]

Quick request: hERG current change (%, negative = inhibition) at 10uM for each listed item, please.
1. CC(C)(C)OC(=O)N1CCC(CC2CC(c3cccc(Br)c3)=NO2)(C(=O)NCC2CCCCC2)CC1 (centres unmarked)
2. CC(=O)NC(CC(=O)OCC(=O)c1c(N)n(CC(C)C)c(=O)n(C)c1=O)c1ccccc1 (centres unmarked)
3. CC(C)(C)n1nnnc1C(c1cccc(C#N)c1)N1CCCCCC1 (centres unmarked)
4. Cc1noc(C)c1COc1ccccc1C(=O)NC(C)c1ccc(Cl)cc1 (centres unmarked)
5. CCC(C(=O)OCC(=O)c1c(N)n(CC(C)C)c(=O)n(C)c1=O)c1ccccc1 (centres unmarked)
6. Cc1ccc(S(=O)(=O)N(C)CC(=O)Nc2ccccc2)cc1
7. Cc1ccccc1OCCC(=O)OCC(=O)c1c(N)n(CC(C)C)c(=O)n(C)c1=O

[13.7, -3.32, -4.75, -55.8, -2.13, -20, -75.2]
